- Species: Rattus norvegicus
- Method Description: DrugMatrix - Regimen: Daily Repeat
- Format: toxicity, organism-based, Sprague-Dawley
- Parameters: regimen Daily Repeat, gender Male, age 6-8 weeks
- Assay Context: in vivo, po, 0 mg/kg, 72 h, tissue Plasma, route oral GAVAGE, dose level Control, time 3 day, vehicle .5 % CMC
Output Criterion met for ALKALINE PHOSPHATASE not less than 400 u/L; output Criterion not met otherwise.

[
  {
    "Molecule": "CCCNC(=O)NS(=O)(=O)c1ccc(Cl)cc1 [CHLORPROPAMIDE]",
    "Class": "Criterion not met"
  },
  {
    "Molecule": "COc1ccccc1[N+](=O)[O-] [2-NITROANISOLE]",
    "Class": "Criterion not met"
  },
  {
    "Molecule": "CN(C)C(=O)C(CCN1CCC(O)(c2ccc(Cl)cc2)CC1)(c1ccccc1)c1ccccc1 [LOPERAMIDE]",
    "Class": "Criterion met"
  },
  {
    "Molecule": "C[C@]12CC[C@@H]3c4ccc(O)cc4CC[C@H]3[C@@H]1C[C@@H](O)[C@@H]2O [ESTRIOL]",
    "Class": "Criterion not met"
  },
  {
    "Molecule": "CCCCC1=NC2(CCCC2)C(=O)N1Cc1ccc(-c2ccccc2-c2nnn[nH]2)cc1 [IRBESARTAN]",
    "Class": "Criterion not met"
  },
  {
    "Molecule": "CN1CCN(C2=Nc3cc(Cl)ccc3Nc3ccccc32)CC1 [CLOZAPINE]",
    "Class": "Criterion not met"
  },
  {
    "Molecule": "C[C@@H]1O[C@@H](O[C@H]2C[C@@H](O)[C@]3(CO)[C@H]4[C@H](O)C[C@]5(C)[C@@H](C6=CC(=O)OC6)CC[C@]5(O)[C@@H]4CC[C@]3(O)C2)[C@H](O)[C@H](O)[C@H]1O [OUABAIN]",
    "Class": "Criterion not met"
  },
  {
    "Molecule": "CCn1cc(C(=O)O)c(=O)c2cc(F)c(N3CCNC(C)C3)c(F)c21 (configuration not stated) [LOMEFLOXACIN]",
    "Class": "Criterion not met"
  },
  {
    "Molecule": "NC(=O)N1c2ccccc2CC(=O)c2ccccc21 [OXCARBAZEPINE]",
    "Class": "Criterion not met"
  },
  {
    "Molecule": "CCC1=C(C)CN(C(=O)NCCc2ccc(S(=O)(=O)NC(=O)N[C@H]3CC[C@H](C)CC3)cc2)C1=O [GLIMEPIRIDE]",
    "Class": "Criterion met"
  },
  {
    "Molecule": "COc1cc(OC)c(C(=O)CCCN2CCCC2)c(OC)c1 [BUFLOMEDIL]",
    "Class": "Criterion not met"
  }
]
